target: Mcl-1 protein (Homo sapiens); experiment: Inhibition of Mcl-1 by the fluorescence polarisation technique (Method 1 or Method 2); type: binding; conditions: fluorescence polarisation, Fluorescein labelled ligand; Method 1 (not underlined) or Method 2 (underlined); read-out: IC50 (μM) Mcl-1 FP
Sequence (Q07820 whole entry): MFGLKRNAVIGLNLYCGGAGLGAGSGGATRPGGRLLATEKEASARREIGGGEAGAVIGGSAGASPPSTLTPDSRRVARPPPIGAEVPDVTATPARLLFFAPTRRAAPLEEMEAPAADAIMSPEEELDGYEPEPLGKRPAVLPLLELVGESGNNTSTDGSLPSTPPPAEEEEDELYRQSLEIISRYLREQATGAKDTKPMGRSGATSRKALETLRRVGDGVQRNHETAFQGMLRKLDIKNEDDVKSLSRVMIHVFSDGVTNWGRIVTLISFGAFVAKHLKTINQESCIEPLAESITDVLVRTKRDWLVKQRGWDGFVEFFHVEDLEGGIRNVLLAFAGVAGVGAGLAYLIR
Observation Type: IC50 (µM)

Use these answered entries as a reference point.
O=C(O)C(Cc1ccccn1)Nc1ncnc2sc(C(F)F)c(-c3cccc4ccccc34)c12 (stereo not shown) [Example 251]; 12.1
CCc1sc2ncnc(NC(Cc3ccccc3)C(=O)O)c2c1-c1cc(Cl)c(OCCN2CCN(C)CC2)c(Cl)c1C (stereo not shown) [Example 55]; 8.84
O=C(O)[C@@H](Cc1ccccc1)Nc1ncnc2sc(I)c(-c3cccc4ccccc34)c12; 0.668
CCc1sc2ncnc(NC(Cc3ccccc3)C(=O)O)c2c1-c1ccc(OCCN(C)C)c(Cl)c1C (stereo not shown); 0.127
CC#Cc1sc2ncnc(NC(Cc3ccccc3OCc3ccnn3CC(F)(F)F)C(=O)O)c2c1-c1ccc(OCCN(C)C)c(Cl)c1C (stereo not shown); 0.024

(I) COCCOc1ccccc1-c1nccc(COc2ccccc2CC(Nc2ncnc3sc(-c4ccc(F)cc4)c(-c4ccc(OCCN(C)C)c(Cl)c4C)c23)C(=O)O)n1 (stereo not shown)
(II) CCc1sc2ncnc(NC(Cc3c[nH]c4ccccc34)C(=O)O)c2c1-c1cccc2ccccc12 (stereo not shown)
Exercise: Please indicate which has the smaller reported IC50: I , or II . Bench note: the answer is the label of the chosen record.
Key: I

----------
Molecular target: Mcl-1 protein (Homo sapiens)
Experiment: Inhibition of Mcl-1 by the fluorescence polarisation technique (Method 1 or Method 2)
Assay type: binding
Conditions: fluorescence polarisation, Fluorescein labelled ligand; Method 1 (not underlined) or Method 2 (underlined); read-out: IC50 (μM) Mcl-1 FP
Method: The relative binding potency of each compound was determined via Fluorescence Polarisation (FP). An 11 point serial dilution of each compound was prepared in DMSO and 2 μl transferred into flat bottomed, low binding, 384-well plate (final DMSO concentration 5%). […]
Observation Type: IC50 (µM)

CCc1sc2ncnc(NC(Cc3ccccc3)C(=O)O)c2c1-c1cccc(OC)c1C (stereo not shown) [Example 76]; 3.18

(a) O=C(O)[C@@H](Cc1ccccc1)Nc1ncnc2sc(C(F)F)c(-c3cccc4ccccc34)c12 (single isomer, unassigned) [Example 208]
(b) CCc1sc2ncnc(NC(Cc3ccccc3)C(=O)O)c2c1-c1cccc2c1c(Cl)cn2CCN1CCCC1 (stereo not shown) [Example 233]
(c) CCc1sc2ncnc(N[C@H](CC3CCCCC3)C(=O)O)c2c1-c1cccc2ccccc12 [Example 164]
Exercise: Sort the compounds on IC50; start with the lowest figure. Provide the ranking by listing each label in its place in the requested order.
Key: c, a, b
(c: 0.227 µM, a: 0.632 µM, b: 3.41 µM)

----------
molecular target: Mcl-1 protein (Homo sapiens); assay: Inhibition of Mcl-1 by the fluorescence polarisation technique (Method 1 or Method 2); assay type: binding; conditions: fluorescence polarisation, Fluorescein labelled ligand; Method 1 (not underlined) or Method 2 (underlined); read-out: IC50 (μM) Mcl-1 FP
Observation Type: IC50 (µM)

Below are worked cases with known answers.
CCc1sc2ncnc(NC(Cc3ccccc3OCc3cccc(Cl)c3)C(=O)O)c2c1-c1cccc(Cl)c1C (stereo not shown) [Example 149]; 14
CCc1sc2ncnc(N[C@@H](Cn3cccn3)C(=O)O)c2c1-c1cccc(Cl)c1C (racemic) [Example 110]; 0.839

(a) CCc1sc2ncnc(NC(Cc3ccccc3)C(=O)O)c2c1-c1cccc2[nH]ccc12 (stereo not shown) [Example 74]
(b) CCOC(=O)C(Cc1ccccc1OCc1ccnc(-c2ccccc2OC)n1)Nc1ncnc2sc(-c3ccc(F)cc3)c(-c3ccc(OCCN4CCN(C)CC4)c(Cl)c3C)c12 (stereo not shown) [Example 256]
Exercise: Please state the entry with greater IC50 among a and b . When you have decided, please share the label of that item.
Key: b
